- test_details: protein stability index of a GFP-peptide fusion (GPS, HEK-293T) (PSI 1-6); higher = more stable;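 note: 24-mer peptide tiles fused after GFP, lentivirally expressed, FACS-sorted into six equal bins by GFP/DsRed ratio, decoded by Illumina sequencing, PSI is the read-weighted mean bin number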
- condition: treatment: MLN4924 1 uM, 8 h; c terminus: a fixed tail appended
Let's look at some sequences and their measured protein stability index.

monomer_sequence	protein stability index
IRKTVKRLRKHQHVGDFARDLAAR [ELOA2]	3.69
GSENRNHRLLNMARNNNDPGRLTE [RNF180]	4.26
LDELLGRGMATKLLARPGTGEHRE [FBF1]	4.09
GTMGMAPLGNTPMMNQSMMGMNMN [CLINT1]	3.52
GWVSGQLRYSVVEESEPGTLVGNV [PCDHGC5]	3.07
LGPRDAGTRGRLESAQATFQAHRD [ARFIP2]	4.67
PEVILELGWAQPCDVWSIGCILFE [CLK3]	3.55
GGGGGGGGKSGGIVISPFRLEELT [CCDC6]	3.59
IENYKKQTRNGLGKDHEILRRRIE [FUT8]	3.87
LREERKKAKKNKDKYVGVSSDSVG [CLINT1]	5.09
PCVIESLRTLDKKTFYKTADISQM [TAF7L]	2.41
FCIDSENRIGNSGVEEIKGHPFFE [STK38L]	3.03
SPGGTLMDLSERQEVSSVRSLSST [DLC1]	4.85
EFKADAQLLLHNTVIFYGADSEQA [ZMYND11]	3.32
VQTSVIGSNGYILNKPALQAQPLR [EHMT1]	3.17
YTCHECGDSFSHSSNRIRHLRTHT [ZNF263]	3.32
LHGKAIKVEQAKKPSFQSGGRRRP [RBMY1A1]	4.21
LKEGMLMKIKQDRASRTYELQNQL [FSD1]	3.39
DEQEKGIVTKFYQLSATGQKLYVR [FAN1]	2.94
REVKVLLDQLRFPNGVQLSPAEDF [APMAP]	2.95
CEFSSERGPRMCRFIRERDRAVND [CDC25B]	3.52
SSGRKWGDDAPKEEVDTGAVNLIE [INTS4]	5.21

----------
Let's look at some sequences and their measured protein stability index.
- test_details: protein stability index of a GFP-peptide fusion (GPS, HEK-293T) (PSI 1-6); higher = more stable
- condition: treatment: DMSO; c terminus: a fixed tail appended
readout_name: protein stability index

monomer_sequence	value_reported
NSSTWGSLKQALKGLSVEFALLAD [SNX8]	2.39
ALSPAGVCGGAQRPGHLPGLLLGS [CDC25B]	2.51
GLDIGAQGEPLGYRQDDPSYRSFH [CTNNB1]	4.14
REVKVLLDQLRFPNGVQLSPAEDF [APMAP]	2.97
IDYKTTTILLDGRRVRLELWDTSG [RAB40C]	2.25
GEKPFTCHECGKKFSQNSHLIKHR [ZNF75A]	3.44
RLPRAIGMSLAKELIFSARVLDGK [AUH]	1.83
SGGRGPQGDKAIREQGPREQEPEL [PBXIP1]	5.44
SKSCMRAVLEYLYTGMFTSSPDLD [RHOBTB2]	2.28
TKLSLLAIHGYTVWAHNLIAIARL [FBXO33]	3.19
DSGQYWPSVYHAMPSPCSCMSFNP [WDFY2]	2.37
ALKEELLFMKKNHEEEVKGLQAQI [KRT18]	3.79
QQLAAEPVPTGFFNMWGFGRVSKQ [WDR41]	3.56
SLALVQNGDVSAPSAILRTPESTK [ANKRD40]	4.07
YTFIIVPKMLVDLLSQKKTISFLG [OR10K2]	3.09
LDSCKQLTLAQGAGEEDPSGMVTI [SMG5]	4.46

----------
- test_details: protein stability index of a GFP-peptide fusion (GPS, HEK-293T) (PSI 1-6); higher = more stable
- condition: treatment: DMSO; c terminus: a fixed tail appended
Threshold check on protein stability index: at or above 3 gives Yes, strictly below gives No.

monomer_sequence	qualitative_label
TSPWSECTKTCGVGVRMRDVKCYQ [ADAMTSL2]	No
EDDAQSRRDEQDDDDKGDSKETRL [GOLPH3]	Yes
EPSELDNPFQDPAVIQHRPSRQYA [SCAMP3]	Yes
QEQRLGIRISMSHEEEPLGTAGPL [GMPPB]	Yes
LKTSRKDVKDKETTENENTKFEVR [CHGB]	Yes
LNQVADLLEQSLEEFAQAESKDQG [ALDH8A1]	Yes
RTIAETEAAYLKILESSQTLLSVL [SSNA1]	No
EEEPGVRNGMASEGLNSSLCSPGH [PSD2]	Yes
CHELLGHVPLLAEPSFAQFSQEIG [TPH1]	Yes
PISPSTEVGGSGIGTPPSVLKRQR [MYBL2]	Yes
CHCLKGFTLNPDKKTCRRINYCAL [MATN2]	No
IINDTYSEVKEELAGQKDELQLSD [PKD2L1]	Yes
ATLICMAMQASKATKITLSAIYKW [FOXJ1]	Yes
KRPAWGSRRFEAVGWWALLALVTL [POMT2]	No
LMTSKPAEVVKILQTMLRQSAFLH [INTS4]	No
EHPNVVRLMDVCATSRTDREIKVT [CDK4]	Yes
GTMGMAPLGNTPMMNQSMMGMNMN [CLINT1]	Yes
RHIFMGYLESETETTEAIDDEGWL [ACSBG2]	Yes

----------
- test_details: protein stability index of a GFP-peptide fusion (GPS, HEK-293T) (PSI 1-6); higher = more stable
- condition: treatment: MLN4924 1 uM, 8 h; c terminus: a fixed tail appended
Threshold check on protein stability index: at or above 3 gives rule met, strictly below gives rule not met.

monomer_sequence	qualitative_label
AWNPEDRSLNVFVKDDDRLTFHRH [SPSB4]	rule met
LLLLLPTLQSITWQMIEQIQFIKL [HNF4A]	rule met
RVQPVKDTAHDFRAKCRNMEHALR [TRIM35]	rule met
MDVTSRCTLGDPNKLPEGVPQPAR [KLHL20]	rule met
GSAEKQAGEAHMAADGETNGSCEN [EHMT1]	rule met
SHQYDRIYCGAGVQKDHENYMKIL [PCMTD1]	rule not met
TLRSHLKSFSMAKGLNARMMRGLS [RAB40A]	rule not met
KLFCIPVHGIRSVGTAAVNMCLVA [IMPA1]	rule not met
VTTHQPTNLVLPSNGSMHNYCPQQ [EDNRA]	rule met

----------
Let's look at some sequences and their measured protein stability index.
- test_details: protein stability index of a GFP-peptide fusion (GPS, HEK-293T) (PSI 1-6); higher = more stable
- condition: treatment: DMSO; c terminus: a fixed tail appended

monomer_sequence	protein stability index
LQSCGDLHTFTPAGRPRAERRPRR [FAM189A2]	4.95
QLVLVAAGFDALQGDPKGEMAATP [HDAC6]	2.75
ALMHTLQRHRDILQVIYWARDVFI [GOSR1]	2.84
ESSDDDSEEAPSTSGMGFHAPKIG [SDE2]	5.51
VNNDKSISVQELMGCLGVAKEDGK [SMOC2]	4.47
IRVMVHGRNHTPFLGHHSFSVRPG [SCNN1D]	2.55
PRVPEEAAQDRPMSPGDCPPETTE [YJU2B]	5.46
NAKLAADDFRTKYQTEQSLRQLVE [KRT33B]	3.4
KNIVIADFVMSLTFPFKILGDSGL [P2RY14]	3.04
RLVLDAALALQARGCSVKIWTAHY [ALG2]	2.87
THLILHRDLKTQNILLDKHRMVVK [NEK8]	2.78

----------
- test_details: protein stability index of a GFP-peptide fusion (GPS, HEK-293T) (PSI 1-6); higher = more stable
- condition: treatment: MLN4924 1 uM, 8 h; c terminus: a fixed tail appended
Measured protein stability index determines class: LOW (below 3), MID (3 to below 4), HIGH (4 or more)

monomer_sequence	qualitative_label
LGLGSMIGTMAGITTPIIDTFKVP [SLC6A17]	LOW
EKAFSYRQMAFDFARVKKGADGVM [SNAP91]	LOW
LRDIRAQYESIAAKNLQEAEEWYK [PRPH]	HIGH
EEEPGVRNGMASEGLNSSLCSPGH [PSD2]	HIGH
AGNDPYCFVEFHEHRHAAAALAAM [TIA1]	LOW
YKRRIDAENSPYLNPQLVQPAKKP [ESRRG]	MID
GLFAVGEHTGEVRTARALLDRDAL [PCDHGA10]	MID
DLDANLRKLNSRLFVIRGQPADVF [CRY1]	LOW
EEREEGPPRIPQADQWKSSNKSLV [RHOBTB1]	HIGH
WSRNSKPVHTTILNPHIHLMGDES [CAMK2A]	MID
ELERAQHELLLGSLQQQHQADLEL [FBF1]	HIGH
GPWSCENFNPLLVAGGVAVAAIAL [CEND1]	LOW
KLHEIFRGLHEDLQGVPERLLGTA [VTI1B]	LOW
LKTSRKDVKDKETTENENTKFEVR [CHGB]	HIGH
ELGKGAFSVVRRCMKIPTGQEYAA [CAMK2D]	LOW
GTPKDHDSPENGADSFESSDSLLQ [ETS2]	HIGH
PDQLPQNNTLVALPIVAIENILSF [FBXO28]	LOW
NGSSEKREVRQFQFTAWPDHGVPE [PTPRD]	HIGH
LGPLGSTAFLPDSKCLVDDGTGRM [GALNT9]	HIGH

The reported measurements were obtained from the supplement of paper PMC10567573.
